Hey, just so you know, these numbers are from patent US8691753B2.

Below, each entry is listed alongside its reported pKi.
# STUDY TARGET: MMP-9h (Homo sapiens (Human), UniProt P14780)
# Sequence (P14780 94-707): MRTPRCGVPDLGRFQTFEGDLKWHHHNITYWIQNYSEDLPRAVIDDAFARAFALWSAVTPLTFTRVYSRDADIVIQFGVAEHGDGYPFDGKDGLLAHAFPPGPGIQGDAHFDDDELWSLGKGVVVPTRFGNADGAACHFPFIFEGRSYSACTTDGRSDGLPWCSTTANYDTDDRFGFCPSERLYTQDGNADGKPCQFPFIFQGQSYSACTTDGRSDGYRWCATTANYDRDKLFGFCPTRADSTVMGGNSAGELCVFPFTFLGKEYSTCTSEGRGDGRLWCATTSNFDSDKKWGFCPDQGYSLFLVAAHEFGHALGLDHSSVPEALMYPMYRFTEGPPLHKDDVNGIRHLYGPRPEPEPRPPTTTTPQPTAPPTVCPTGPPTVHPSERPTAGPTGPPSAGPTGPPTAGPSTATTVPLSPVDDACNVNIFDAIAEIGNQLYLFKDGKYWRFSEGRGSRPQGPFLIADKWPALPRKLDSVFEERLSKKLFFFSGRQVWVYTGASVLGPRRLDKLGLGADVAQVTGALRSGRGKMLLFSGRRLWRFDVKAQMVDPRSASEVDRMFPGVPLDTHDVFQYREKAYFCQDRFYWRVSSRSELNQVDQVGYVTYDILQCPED
# ASSAY NAME: Inhibition constant (Ki) on MMP-9h
# Assay type: biochemical
# RECORDED CONDITIONS: human MMP-9
pKi: −log10 of the molar value.
MEASUREMENT TYPE: pKi

MOLECULE | OBSERVED VALUE
NC(=O)CC[C@H](NC(=O)CCc1ccc(-c2ccc(-c3ccccc3)cc2)cc1)C(=O)N[C@@H](CCC(=O)O)C(N)=O [Compound 72] | < 5.30
NC(=O)[C@H](CC(=O)O)NC(=O)[C@H](CCC(=O)O)NC(=O)CCc1cc(-c2ccc(-c3ccccc3)cc2)no1 [Compound 18] | < 6.00
NC(=O)[C@H](CCC(=O)O)NC(=O)[C@H](CCC(=O)O)NC(=O)CCc1ccc(-c2csnn2)cc1 [Compound 35] | 6.70
NC(=O)[C@H](CCC(=O)O)NC(=O)[C@H](CCC(=O)O)NC(=O)CCc1ccc(-n2cccc2)cc1 [Compound 36] | < 6.00
NC(=O)[C@H](CCC(=O)O)NC(=O)[C@H](CCC(=O)O)NC(=O)CCc1cc(-c2ccc(-c3ccccc3)cc2)no1 [Compound 16] | < 6.00
NC(=O)[C@H](CCC(=O)O)NC(=O)[C@H](CCCC(=O)O)NC(=O)CCc1ccc(-c2cc(-c3ccccc3)cs2)cc1 [Compound 102] | < 5.30
NC(=O)[C@H](CCC(=O)O)NC(=O)[C@H](CCCC(=O)O)NC(=O)CCc1cc(-c2ccc(-c3cccc(Cl)c3)cc2)no1 [Compound 11] | < 5.00

----------
Below, each entry is listed alongside its reported Ki.
# STUDY TARGET: MMP-13h (Homo sapiens (Human))
# ASSAY NAME: Inhibition constant (Ki) on MMP-13h
# Type: biochemical
# RECORDED CONDITIONS: read-out: Ki MMP-13h; human MMP-13

LINE NOTATION | Ki
NC(=O)[C@H](Cc1ccc(O)cc1)NC(=O)[C@H](CCC(=O)O)NC(=O)CCc1ccc(-c2ccccc2)cc1 | > 1 µM
NC(=O)[C@H](CCC(=O)O)NC(=O)CCc1cc(-c2ccc(-c3cccc(Cl)c3)cc2)no1 | 0.046 µM
NC(=O)[C@H](CCC(=O)O)NC(=O)[C@H](CCC(=O)O)NC(=O)CCc1ccc(-c2cccc(N)c2)cc1 | > 1 µM
NC(=O)[C@H](CCC(=O)O)NC(=O)[C@H](CCC(=O)O)NC(=O)CCc1ccc(-c2cccc(C(=O)O)c2)cc1 | > 5 µM
C[C@H](NC(=O)[C@H](CCC(=O)O)NC(=O)CCc1ccc(-c2cccs2)cc1)C(N)=O | > 1 µM
NC(=O)[C@H](CC(=O)O)NC(=O)[C@H](CC(=O)O)NC(=O)CCc1cc(-c2ccc(-c3ccccc3)cc2)no1 | 0.024 µM
NCCCC[C@H](NC(=O)CCc1ccc(-c2ccc(-c3ccccc3)cc2)cc1)C(=O)N[C@@H](CCC(=O)O)C(N)=O | 0.097 µM

----------
Below, each entry is listed alongside its reported pKi.
# STUDY TARGET: MMP-14h (Homo sapiens (Human))
# ASSAY NAME: Inhibition constant (Ki) on MMP-14h
# Format: biochemical
# RECORDED CONDITIONS: human MMP-14
pKi: −log10 of the molar value.

LINE NOTATION | STUDY TARGET | QUAL | pKi
NC(=O)[C@H](CCC(=O)O)NC(=O)[C@H](CCC(=O)O)NC(=O)CCc1ccc(-c2nc3ccccc3s2)cc1 | MMP-14h (Homo sapiens (Human)) | = | 6.26
NC(=O)[C@H](CCC(=O)O)NC(=O)[C@H](CCC(=O)O)NC(=O)CCc1ccc(-c2ccsc2)cc1 | MMP-14h (Homo sapiens (Human)) | = | 6.39
NC(=O)[C@H](CCC(=O)O)NC(=O)[C@H](CCC(=O)O)NC(=O)CCc1ccc(-c2csnn2)cc1 | MMP-14h (Homo sapiens (Human)) | = | 6.36
NC(=O)[C@H](CCC(=O)O)NC(=O)[C@H](CCCC(=O)O)NC(=O)CCc1cc(-c2ccc(-c3cccc(Cl)c3)cc2)no1 | MMP-14h (Homo sapiens (Human)) | < | 5.00

----------
# STUDY TARGET: MMP-12h (Homo sapiens (Human), UniProt P39900)
# Sequence (P39900 106-470): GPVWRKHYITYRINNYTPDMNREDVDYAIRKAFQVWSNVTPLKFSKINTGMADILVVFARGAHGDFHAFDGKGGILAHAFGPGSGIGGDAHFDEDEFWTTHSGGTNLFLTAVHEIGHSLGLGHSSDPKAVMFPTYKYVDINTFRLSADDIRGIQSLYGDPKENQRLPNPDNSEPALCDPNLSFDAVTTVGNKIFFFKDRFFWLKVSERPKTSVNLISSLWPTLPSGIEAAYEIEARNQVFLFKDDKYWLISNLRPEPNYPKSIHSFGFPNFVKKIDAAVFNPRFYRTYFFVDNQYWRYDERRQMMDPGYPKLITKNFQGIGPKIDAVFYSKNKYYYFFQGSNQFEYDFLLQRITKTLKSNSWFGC
# ASSAY NAME: Inhibition constant (Ki) on MMP-12h
# Assay type: biochemical
# RECORDED CONDITIONS: human MMP-12
MEASUREMENT TYPE: Ki (µM)

COMPOUND | UNIT ABBREV | OBSERVED VALUE
NC(=O)[C@H](CCC(=O)O)NC(=O)[C@H](CCC(=O)O)NC(=O)CCc1ccc(-c2ccsc2)cc1 [Compound 38] | µM | 0.012
NC(=O)[C@H](CCC(=O)O)NC(=O)[C@H](CCCC(=O)O)NC(=O)CCc1cc(-c2ccc(-c3cccc(Cl)c3)cc2)no1 [Compound 11] | µM | 0.254
NC(=O)[C@H](CCC(=O)O)NC(=O)[C@H](CCC(=O)O)NC(=O)CCc1ccc(-c2cccc([N+](=O)[O-])c2)cc1 [Compound 55] | µM | 0.073
NC(=O)[C@H](CCC(=O)O)NC(=O)[C@H](CCC(=O)O)NC(=O)CCc1ccc(-c2nccs2)cc1 [Compound 37] | µM | 0.369
NC(=O)[C@H](CCC(=O)O)NC(=O)[C@H](CCC(=O)O)NC(=O)CCc1ccc(-n2cccc2)cc1 [Compound 36] | µM | 0.059
NC(=O)CC[C@H](NC(=O)[C@H](CCC(=O)O)NC(=O)CCc1ccc(-c2ccccc2)cc1)C(N)=O [Compound 42] | µM | 0.048
NC(=O)CC[C@H](NC(=O)CCc1ccc(-c2ccc(-c3ccccc3)cc2)cc1)C(=O)N[C@@H](CCC(=O)O)C(N)=O [Compound 72] | µM | 0.134

----------
# STUDY TARGET: MMP-9h (Homo sapiens (Human))
# ASSAY NAME: Inhibition constant (Ki) on MMP-9h
# Format: biochemical
# RECORDED CONDITIONS: read-out: Ki MMP-9h; human MMP-9
pKi: −log10 of the molar value.

COMPOUND | pKi
NC(=O)[C@H](Cc1ccc(O)cc1)NC(=O)[C@H](CCC(=O)O)NC(=O)CCc1ccc(-c2cccs2)cc1 [Compound 84] | 6.07
O=C(O)CC[C@H](NC(=O)CCc1ccc(-c2cccs2)cc1)C(=O)N1CCC[C@@H](CC(=O)O)C1 [Compound 89] | < 6.00
NC(=O)[C@H](CCC(=O)O)NC(=O)[C@H](CCC(=O)O)NC(=O)CCc1ccc(-c2ccc(-c3ccccc3)s2)cc1 [Compound 92] | 6.06
NC(=O)[C@H](CCC(=O)O)NC(=O)[C@H](CCC(=O)O)NC(=O)CCc1cc(-c2ccc(-c3cccc(Cl)c3)cc2)no1 [Compound 3] | 6.25
NCCCC[C@H](NC(=O)CCc1ccc(-c2ccc(-c3ccccc3)cc2)cc1)C(=O)N[C@@H](CCC(=O)O)C(N)=O [Compound 73] | < 5.00
NCCCC[C@H](NC(=O)[C@H](CCC(=O)O)NC(=O)CCc1ccc(-c2ccc(-c3ccccc3)cc2)cc1)C(N)=O [Compound 63] | < 6.00
NC(=O)[C@H](CC(=O)O)NC(=O)[C@H](CCC(=O)O)NC(=O)CCc1ccc(-c2ccccc2)cc1 [Compound 45] | < 6.00
NC(=O)[C@H](CCC(=O)O)NC(=O)[C@H](CCC(=O)O)NC(=O)CCc1cc(-c2ccccc2)no1 [Compound 14] | < 6.00
NC(=O)CC[C@H](NC(=O)[C@H](CCC(=O)O)NC(=O)CCc1ccc(-c2ccc(-c3ccccc3)cc2)cc1)C(N)=O [Compound 62] | < 6.00
NC(=O)[C@H](CC(=O)O)NC(=O)[C@H](CCC(=O)O)NC(=O)CCc1ccc(-c2cccs2)cc1 [Compound 83] | < 6.00
NC(=O)[C@H](CCC(=O)O)NC(=O)[C@H](CCC(=O)O)NC(=O)CCc1ccc(-c2cc(Cl)cc(Cl)c2)cc1 [Compound 58] | 6.41
NC(=O)[C@H](CC(=O)O)NC(=O)[C@H](CCC(=O)O)NC(=O)CCc1cc(-c2ccc(-c3cccc(Cl)c3)cc2)no1 [Compound 8] | < 6.00
NC(=O)[C@H](CCC(=O)O)NC(=O)[C@H](CCC(=O)O)NC(=O)CCc1noc(-c2ccccc2)n1 [Compound 26] | < 6.00
NC(=O)[C@H](CCC(=O)O)NC(=O)[C@H](CC(=O)O)NC(=O)CCc1ccc(-c2cc(-c3ccccc3)cs2)cc1 [Compound 100] | < 6.00

----------
Below, each entry is listed alongside its reported pKi.
# STUDY TARGET: MMP-10h (Homo sapiens (Human))
# Sequence (P09238 99-476): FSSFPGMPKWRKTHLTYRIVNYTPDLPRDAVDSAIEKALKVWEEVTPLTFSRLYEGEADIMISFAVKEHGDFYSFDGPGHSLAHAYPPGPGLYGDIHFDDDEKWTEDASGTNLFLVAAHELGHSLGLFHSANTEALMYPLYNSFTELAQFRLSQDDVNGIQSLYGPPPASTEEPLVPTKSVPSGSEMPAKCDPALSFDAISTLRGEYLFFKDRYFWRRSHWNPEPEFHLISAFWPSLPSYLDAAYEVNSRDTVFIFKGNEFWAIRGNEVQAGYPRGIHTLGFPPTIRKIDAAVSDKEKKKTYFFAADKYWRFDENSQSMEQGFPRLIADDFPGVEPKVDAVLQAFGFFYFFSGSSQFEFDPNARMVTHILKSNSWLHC
# ASSAY NAME: Inhibition constant (Ki) on MMP-10h
# Type: biochemical
# RECORDED CONDITIONS: read-out: Ki MMP-10h; human MMP-10
pKi: −log10 of the molar value.
MEASUREMENT TYPE: pKi

LINE NOTATION | QUAL | OBSERVED VALUE
C[C@H](NC(=O)[C@H](CCC(=O)O)NC(=O)CCc1ccc(-c2ccccc2)cc1)C(N)=O | < | 6.00
NC(=O)CC[C@H](NC(=O)[C@H](CCC(=O)O)NC(=O)CCc1ccc(-c2ccc(-c3ccccc3)cc2)cc1)C(N)=O | = | 6.99
NC(=O)[C@H](Cc1ccc(O)cc1)NC(=O)[C@H](CCC(=O)O)NC(=O)CCc1ccc(-c2cccs2)cc1 | = | 6.29
NC(=O)[C@H](CCC(=O)O)NC(=O)[C@H](CCC(=O)O)NC(=O)CCc1cn(-c2ccccc2)nn1 | < | 6.00
